- assayed target: CaV2.2 (Homo sapiens, UniProt Q00975)
- Construct: expressed in transfected cells; host or cells: HEK293
- Sequence (Q00975 whole entry): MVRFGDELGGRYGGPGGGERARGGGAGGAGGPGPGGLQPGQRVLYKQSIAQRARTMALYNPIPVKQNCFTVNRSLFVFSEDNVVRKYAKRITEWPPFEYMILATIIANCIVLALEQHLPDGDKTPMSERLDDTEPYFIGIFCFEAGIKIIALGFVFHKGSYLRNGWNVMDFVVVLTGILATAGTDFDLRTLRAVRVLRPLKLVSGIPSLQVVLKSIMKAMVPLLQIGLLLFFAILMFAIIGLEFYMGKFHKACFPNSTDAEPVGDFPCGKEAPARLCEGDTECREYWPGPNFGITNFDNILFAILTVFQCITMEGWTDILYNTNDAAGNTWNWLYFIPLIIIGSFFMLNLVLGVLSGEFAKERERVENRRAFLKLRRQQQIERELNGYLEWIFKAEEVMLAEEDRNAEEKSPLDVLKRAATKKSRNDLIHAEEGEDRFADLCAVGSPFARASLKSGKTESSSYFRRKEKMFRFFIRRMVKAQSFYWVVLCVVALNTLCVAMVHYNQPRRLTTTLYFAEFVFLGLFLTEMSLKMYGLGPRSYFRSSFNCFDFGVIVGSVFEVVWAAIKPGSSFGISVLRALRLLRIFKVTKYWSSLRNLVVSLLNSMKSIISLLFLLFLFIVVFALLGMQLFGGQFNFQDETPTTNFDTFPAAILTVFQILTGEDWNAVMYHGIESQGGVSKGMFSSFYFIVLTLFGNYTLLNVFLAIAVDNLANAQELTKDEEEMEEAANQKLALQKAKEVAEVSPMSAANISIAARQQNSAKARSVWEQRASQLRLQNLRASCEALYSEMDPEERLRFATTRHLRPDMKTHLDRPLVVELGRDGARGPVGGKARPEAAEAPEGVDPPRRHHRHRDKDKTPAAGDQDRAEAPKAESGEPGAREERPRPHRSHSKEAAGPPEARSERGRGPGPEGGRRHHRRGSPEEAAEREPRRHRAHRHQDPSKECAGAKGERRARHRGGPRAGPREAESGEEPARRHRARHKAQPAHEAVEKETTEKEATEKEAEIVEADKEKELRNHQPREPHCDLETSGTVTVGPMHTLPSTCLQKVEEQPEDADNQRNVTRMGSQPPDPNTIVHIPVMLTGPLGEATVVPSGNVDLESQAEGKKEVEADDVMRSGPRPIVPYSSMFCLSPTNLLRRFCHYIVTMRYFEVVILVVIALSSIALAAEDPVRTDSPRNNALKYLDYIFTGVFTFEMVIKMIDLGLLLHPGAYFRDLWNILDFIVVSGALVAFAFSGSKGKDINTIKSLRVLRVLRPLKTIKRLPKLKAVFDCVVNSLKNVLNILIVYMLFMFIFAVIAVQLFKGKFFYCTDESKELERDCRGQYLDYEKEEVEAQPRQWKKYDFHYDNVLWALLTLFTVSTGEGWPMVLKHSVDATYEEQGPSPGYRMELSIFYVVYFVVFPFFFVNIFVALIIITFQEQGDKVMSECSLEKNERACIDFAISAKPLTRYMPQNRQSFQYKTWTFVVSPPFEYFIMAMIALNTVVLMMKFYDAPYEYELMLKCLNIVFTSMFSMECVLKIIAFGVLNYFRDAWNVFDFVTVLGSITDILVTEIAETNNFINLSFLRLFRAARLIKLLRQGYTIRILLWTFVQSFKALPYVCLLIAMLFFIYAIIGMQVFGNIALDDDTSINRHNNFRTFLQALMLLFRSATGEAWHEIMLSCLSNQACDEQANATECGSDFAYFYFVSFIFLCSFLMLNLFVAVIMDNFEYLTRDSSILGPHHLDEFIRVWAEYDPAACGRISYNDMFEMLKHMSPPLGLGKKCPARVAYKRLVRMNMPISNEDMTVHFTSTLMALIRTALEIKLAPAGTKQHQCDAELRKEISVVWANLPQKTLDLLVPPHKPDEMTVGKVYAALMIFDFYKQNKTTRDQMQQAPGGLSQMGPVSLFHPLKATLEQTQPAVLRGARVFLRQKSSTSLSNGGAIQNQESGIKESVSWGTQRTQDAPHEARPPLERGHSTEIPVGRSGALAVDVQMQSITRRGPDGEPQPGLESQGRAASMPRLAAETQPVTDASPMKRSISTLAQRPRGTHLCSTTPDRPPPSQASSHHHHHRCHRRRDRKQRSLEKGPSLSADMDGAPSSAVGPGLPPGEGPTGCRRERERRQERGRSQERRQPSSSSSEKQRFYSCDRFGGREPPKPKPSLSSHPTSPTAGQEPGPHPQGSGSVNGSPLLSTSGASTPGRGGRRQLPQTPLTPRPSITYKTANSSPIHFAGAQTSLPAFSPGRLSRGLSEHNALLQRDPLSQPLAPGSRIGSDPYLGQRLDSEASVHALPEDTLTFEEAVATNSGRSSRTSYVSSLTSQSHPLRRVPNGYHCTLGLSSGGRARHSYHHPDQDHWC
- Sequence (P54284 whole entry partner): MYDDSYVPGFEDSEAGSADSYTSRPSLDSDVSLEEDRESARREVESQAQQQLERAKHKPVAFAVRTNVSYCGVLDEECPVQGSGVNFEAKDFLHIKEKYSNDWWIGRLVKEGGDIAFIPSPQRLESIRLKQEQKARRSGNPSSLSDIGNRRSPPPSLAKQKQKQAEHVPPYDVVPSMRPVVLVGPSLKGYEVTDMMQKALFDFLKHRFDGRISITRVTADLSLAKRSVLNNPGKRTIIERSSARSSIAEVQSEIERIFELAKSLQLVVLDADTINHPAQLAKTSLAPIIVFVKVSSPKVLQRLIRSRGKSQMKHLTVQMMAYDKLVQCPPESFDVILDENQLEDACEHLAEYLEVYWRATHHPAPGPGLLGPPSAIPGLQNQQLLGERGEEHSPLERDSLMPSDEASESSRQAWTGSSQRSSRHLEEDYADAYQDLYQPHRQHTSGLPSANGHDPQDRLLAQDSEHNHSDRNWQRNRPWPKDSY
- Sequence (P54289 25-946 partner limits assumed): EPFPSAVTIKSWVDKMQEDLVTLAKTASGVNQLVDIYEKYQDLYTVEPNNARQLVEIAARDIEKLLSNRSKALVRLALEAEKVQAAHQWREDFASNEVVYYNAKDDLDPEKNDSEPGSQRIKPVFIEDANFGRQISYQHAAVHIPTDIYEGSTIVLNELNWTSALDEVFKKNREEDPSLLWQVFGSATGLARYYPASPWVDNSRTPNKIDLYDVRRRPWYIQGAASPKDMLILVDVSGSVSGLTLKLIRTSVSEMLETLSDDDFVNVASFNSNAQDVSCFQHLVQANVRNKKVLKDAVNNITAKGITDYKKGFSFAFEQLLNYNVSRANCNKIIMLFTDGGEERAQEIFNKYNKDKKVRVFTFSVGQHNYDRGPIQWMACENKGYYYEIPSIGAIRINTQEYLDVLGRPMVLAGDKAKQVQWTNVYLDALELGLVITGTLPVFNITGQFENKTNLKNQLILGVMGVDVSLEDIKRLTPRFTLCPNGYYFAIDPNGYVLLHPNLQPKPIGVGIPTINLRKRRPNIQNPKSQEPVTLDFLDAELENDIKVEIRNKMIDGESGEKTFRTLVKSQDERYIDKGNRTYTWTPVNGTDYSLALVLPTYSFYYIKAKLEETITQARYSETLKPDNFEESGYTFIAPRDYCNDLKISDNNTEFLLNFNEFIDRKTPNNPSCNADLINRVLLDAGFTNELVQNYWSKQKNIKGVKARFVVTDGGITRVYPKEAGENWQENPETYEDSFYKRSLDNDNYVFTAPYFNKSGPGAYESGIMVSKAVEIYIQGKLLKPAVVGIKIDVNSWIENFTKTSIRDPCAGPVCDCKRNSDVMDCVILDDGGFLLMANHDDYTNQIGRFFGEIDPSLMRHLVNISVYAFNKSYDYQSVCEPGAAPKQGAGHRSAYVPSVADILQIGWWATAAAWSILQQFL
- Sequence (P54289 947-1103 partner limits assumed): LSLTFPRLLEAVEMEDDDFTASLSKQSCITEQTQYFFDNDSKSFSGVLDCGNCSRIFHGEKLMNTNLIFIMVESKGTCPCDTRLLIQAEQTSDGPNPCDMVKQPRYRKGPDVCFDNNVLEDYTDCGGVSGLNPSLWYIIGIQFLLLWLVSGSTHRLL
- run description: VIPR optical membrane potential assay with electrical stimulation
- Format: cell-based
- condition: Table 3, biological assay data; read-out: IC50
pIC50: −log10 of the molar value.
The following molecules are listed with their measured pIC50 values.

Please review the following examples before continuing.
CC1CCN(S(=O)(=O)c2ccc3oc(C(=O)NC4CCCCC4)cc3c2)CC1 = 4.70 to 5.30
Cc1c(C(=O)N2CCCCC2C)[nH]c2ccc(S(=O)(=O)N3CCCCCC3)cc12 (stereo not drawn) = 4.70 to 5.30
CCN(CC)Cc1cc2cc(S(=O)(=O)N3CCC(C)CC3)ccc2[nH]1 = > 5.30

Exercise: Name the reported pIC50 value associated with the molecule CNC(=O)c1cc2cc(S(=O)(=O)N3CC(C)CC(C)C3)ccc2o1 (stereo not drawn)
Solution: > 5.30

Exercise: Now the molecule CCNC(=O)c1cc2cc(S(=O)(=O)N3CC(C)CC(C)C3)ccc2o1 (stereo not drawn)
Solution: > 5.30

Exercise: Now the molecule "Cc1c(C(=O)N(C)Cc2ccccc2)[nH]c2ccc(S(=O)(=O)N3CCC(C)CC3)cc12"
Solution: > 5.30

Exercise: Now the molecule "CC1CCN(S(=O)(=O)c2ccc3[nH]c(C(=O)NC(C)C)cc3c2)CC1"
Solution: > 5.30

Exercise: Now the molecule Cc1c(C(=O)N2CC(C)CC(C)C2)oc2ccc(S(=O)(=O)N3CCCCC3)cc12 (stereo not drawn)
Solution: 4.70 to 5.30

====

- assayed target: CaV2.2 (Homo sapiens, UniProt Q00975)
- Construct: expressed in transfected cells; host or cells: HEK293
- run description: VIPR optical membrane potential assay with electrical stimulation
- Format: cell-based
- condition: Table 3, biological assay data; read-out: IC50
- Description: Antagonist properties of test compounds were assessed as follows. Cells expressing the CaV of interest were placed into microtiter plates. […] The cells were stimulated with electrical means to evoke a CaV dependent membrane potential change from unblocked channels, which was detected and measured with trans-membrane potential-sensitive dyes. Antagonists were detected as a decreased membrane potential response to the stimulus. […] Allow solution to sit for 10 minutes. […] Run plate on the optical reader. […]
The following compounds are listed with their measured IC50 values.

Please review the following examples before continuing.
O=C(NCc1ccccc1)c1cc2cc(S(=O)(=O)N3CCCCCC3)ccc2[nH]1 [compound 382] = < 5 µM
Cc1c(C(=O)NC2CCCCC2C)oc2ccc(S(=O)(=O)N3CCCC3)cc12 (stereo not drawn) [compound 132] = < 20 µM
Cc1c(C(=O)NCCC2CCOCC2)[nH]c2ccc(S(=O)(=O)N3CC(C)CC(C)C3)cc12 (stereo not drawn) [compound 78] = 5 to 20 µM
CCN(CC)S(=O)(=O)c1ccc2oc(C(=O)NC3CCCCC3)c(C)c2c1 [compound 370] = 5 to 20 µM
Cc1c(C(=O)NC(C)C)oc2ccc(S(=O)(=O)N3CCC(F)(F)CC3)cc12 [compound 204] = 5 to 20 µM
Cc1c(C(=O)NCCc2ccccc2)[nH]c2ccc(S(=O)(=O)N3CCC(C)CC3)cc12 [compound 381] = < 5 µM
CC1CC(C)CN(S(=O)(=O)c2ccc3oc(C(=O)N4CCCC4)cc3c2)C1 (stereo not drawn) [compound 184] = < 5 µM
Cc1c(C(=O)NCc2ccccc2)oc2ccc(S(=O)(=O)N3CCCCCC3)cc12 [compound 44] = 5 to 20 µM

Exercise: Name the reported IC50 value associated with the compound Cc1c(C(=O)N2CCCCC2)oc2ccc(S(=O)(=O)N3CCOCC3)cc12 [compound 65]
Solution: < 20 µM

Exercise: Now the compound COc1ccccc1CNC(=O)c1oc2ccc(S(=O)(=O)N3CCCC3)cc2c1C [compound 375]
Solution: 5 to 20 µM

Exercise: Now the compound Cc1c(C(=O)NC2CCCCC2)oc2ccc(S(=O)(=O)N3CCCCCC3)cc12 [compound 446]
Solution: 5 to 20 µM

Exercise: Now the compound CCOC(=O)N1CCN(C(=O)c2cc3cc(S(=O)(=O)N4CCCCCC4)ccc3[nH]2)CC1 [compound 72]
Solution: 5 to 20 µM

Exercise: Now the compound Cc1c(C(=O)N2CCC(C)CC2)[nH]c2ccc(S(=O)(=O)N3CCCCCC3)cc12 [compound 342]
Solution: < 5 µM

Exercise: Now the compound CCN(CC)S(=O)(=O)c1ccc2oc(C(=O)NCCC3CCOCC3)c(C)c2c1 [compound 322]
Solution: < 20 µM

Exercise: Now the compound CCCCN(C)C(=O)c1oc2ccc(S(=O)(=O)N(CC)CC)cc2c1C [compound 95]
Solution: 5 to 20 µM

Exercise: Now the compound Cc1c(C(=O)N2CCC(C)CC2)[nH]c2ccc(S(=O)(=O)N3CC(C)CC(C)C3)cc12 (stereo not drawn) [compound 103]
Solution: < 5 µM

Source listed as patent US8211935B2.
